EXPERIMENTAL_SYSTEM: human Nav1.8 (hNav1.8) ion channel (Homo sapiens)
ASSAY_PROTOCOL: Nav1.8 inhibition, estimated IC50 (Nav1.8 fluorescence, PatchXpress and/or IonFlux HT automated patch clamp assay)
CONDITION_INFO: HEK293 cells stably expressing hNav1.8; determined using one or more of the described methods; read-out: Activity range (estimated IC50)
Below, each entry is listed with its recorded IC50.

Some entries whose results are on file:
compound=O=C(NCc1cccnc1N1C[C@@H]2C[C@H]1CO2)c1cnnc(-c2ccc(OCC3CC3)c(Cl)c2)c1 quantity_kind=IC50 obs_value="< 0.5 µM"
compound=O=C(NCc1cc(F)cnc1N1CCOCC1)c1cnnc(-c2ccc(OCC3CC3)cc2)c1 quantity_kind=IC50 obs_value="> 1 µM"
compound=COc1ccccc1CNC(=O)c1cnnc(-c2ccc(OCC3CC3)c(Cl)c2)c1 quantity_kind=IC50 obs_value="< 0.5 µM"

Data request: API: value(readout=IC50, system=human Nav1.8 (hNav1.8) ion channel (Homo sapiens)) for record O=C(NCc1cccnc1N1CCCCC1)c1cnnc(-c2ccc(OCC3CC3)c(Cl)c2)c1
Data returned: < 0.5 µM

Data request: Next compound: Cc1cnc(N2CCOCC2)c(CNC(=O)c2cnnc(-c3ccc(OCC4CC4)c(Cl)c3)c2)c1
Data returned: > 1 µM

Data request: Moving on to the next compound: O=C(NCc1cccnc1N1CCOCC1)c1cnnc(-c2ccc(Cl)cc2)c1
Data returned: > 1 µM

Data request: Also need O=C(NCc1cc(F)cnc1N1CCOCC1)c1cnnc(-c2ccc(OCC3CC3)c(Cl)c2)c1 , thanks.
Data returned: < 0.5 µM

Data request: CS(=O)(=O)c1ccccc1CNC(=O)c1cnnc(-c2ccc(OCC3CC3)c(Cl)c2)c1 , same question.
Data returned: 0.5 to 1 µM

====

EXPERIMENTAL_SYSTEM: human Nav1.8 (hNav1.8) ion channel (Homo sapiens, UniProt Q9Y5Y9)
Sequence (Q9Y5Y9 whole entry): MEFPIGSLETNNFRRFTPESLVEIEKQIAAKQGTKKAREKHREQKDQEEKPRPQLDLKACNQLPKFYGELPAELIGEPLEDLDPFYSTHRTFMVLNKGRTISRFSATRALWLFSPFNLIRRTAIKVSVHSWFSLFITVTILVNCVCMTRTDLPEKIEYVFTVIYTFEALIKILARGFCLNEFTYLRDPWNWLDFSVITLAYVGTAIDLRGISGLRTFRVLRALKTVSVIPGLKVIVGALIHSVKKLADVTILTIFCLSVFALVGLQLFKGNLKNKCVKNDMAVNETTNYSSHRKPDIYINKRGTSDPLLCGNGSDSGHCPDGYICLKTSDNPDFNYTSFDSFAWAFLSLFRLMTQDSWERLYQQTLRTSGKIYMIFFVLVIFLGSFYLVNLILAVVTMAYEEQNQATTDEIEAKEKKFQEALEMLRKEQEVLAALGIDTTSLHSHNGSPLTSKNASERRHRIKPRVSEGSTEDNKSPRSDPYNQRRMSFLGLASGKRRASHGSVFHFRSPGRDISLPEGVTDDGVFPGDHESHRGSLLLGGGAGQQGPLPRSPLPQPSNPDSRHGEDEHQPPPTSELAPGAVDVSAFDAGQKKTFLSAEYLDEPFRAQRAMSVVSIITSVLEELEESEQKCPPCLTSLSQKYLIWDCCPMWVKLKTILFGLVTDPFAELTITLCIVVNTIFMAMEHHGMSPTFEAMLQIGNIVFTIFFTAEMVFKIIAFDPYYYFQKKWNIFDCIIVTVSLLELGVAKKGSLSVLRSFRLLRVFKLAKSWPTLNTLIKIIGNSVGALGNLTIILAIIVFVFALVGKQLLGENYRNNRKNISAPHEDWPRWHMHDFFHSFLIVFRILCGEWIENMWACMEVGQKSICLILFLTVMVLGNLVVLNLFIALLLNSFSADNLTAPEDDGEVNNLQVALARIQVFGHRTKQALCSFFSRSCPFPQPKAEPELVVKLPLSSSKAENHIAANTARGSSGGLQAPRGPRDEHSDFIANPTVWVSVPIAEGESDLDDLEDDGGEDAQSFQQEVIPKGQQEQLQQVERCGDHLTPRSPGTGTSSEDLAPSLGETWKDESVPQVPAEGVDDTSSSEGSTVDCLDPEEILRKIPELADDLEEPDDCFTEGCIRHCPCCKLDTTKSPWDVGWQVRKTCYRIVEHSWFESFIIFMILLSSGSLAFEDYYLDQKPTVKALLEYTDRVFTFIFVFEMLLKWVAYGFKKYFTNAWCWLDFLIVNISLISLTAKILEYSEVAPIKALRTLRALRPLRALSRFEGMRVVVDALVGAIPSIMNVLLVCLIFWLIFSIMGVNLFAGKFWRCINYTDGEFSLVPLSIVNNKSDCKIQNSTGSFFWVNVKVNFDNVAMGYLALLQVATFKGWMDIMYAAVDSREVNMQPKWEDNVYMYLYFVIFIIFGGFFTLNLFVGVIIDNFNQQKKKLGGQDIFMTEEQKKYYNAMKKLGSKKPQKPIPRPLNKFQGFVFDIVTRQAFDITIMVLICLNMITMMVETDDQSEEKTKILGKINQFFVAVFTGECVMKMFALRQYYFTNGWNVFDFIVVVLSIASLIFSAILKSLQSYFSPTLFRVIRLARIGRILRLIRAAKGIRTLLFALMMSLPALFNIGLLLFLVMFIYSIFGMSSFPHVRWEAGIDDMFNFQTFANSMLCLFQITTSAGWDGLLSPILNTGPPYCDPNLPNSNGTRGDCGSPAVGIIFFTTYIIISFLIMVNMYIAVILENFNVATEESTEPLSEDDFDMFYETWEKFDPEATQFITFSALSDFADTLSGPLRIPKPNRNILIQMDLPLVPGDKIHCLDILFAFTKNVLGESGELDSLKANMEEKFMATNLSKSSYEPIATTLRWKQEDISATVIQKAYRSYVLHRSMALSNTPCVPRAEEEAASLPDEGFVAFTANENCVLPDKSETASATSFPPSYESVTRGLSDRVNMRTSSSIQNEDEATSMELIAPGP
Sequence (Q07699 19-218 partner): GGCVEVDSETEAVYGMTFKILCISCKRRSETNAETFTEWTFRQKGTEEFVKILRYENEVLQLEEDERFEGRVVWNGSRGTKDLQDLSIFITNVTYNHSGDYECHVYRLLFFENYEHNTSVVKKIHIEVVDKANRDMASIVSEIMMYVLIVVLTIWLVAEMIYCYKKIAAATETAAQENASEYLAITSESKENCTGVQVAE
ASSAY_PROTOCOL: Nav1.8 inhibition, estimated IC50 (Nav1.8 fluorescence, PatchXpress and/or IonFlux HT automated patch clamp assay)
CONDITION_INFO: HEK293 cells stably expressing hNav1.8; determined using one or more of the described methods; read-out: Activity range (estimated IC50)
pIC50: −log10 of the molar value.
Collected pIC50 values appear next to each entry.

Data request: Looking for the measured pIC50 of O=C(NCc1cccnc1N1CCOCC1)c1cnnc(-c2ccc(OCC3CC3)c(Cl)c2)c1 , can you help?
Data returned: > 6.30

Data request: Moving on to N#Cc1ccc(-c2cc(C(=O)NCc3cc(F)cnc3N3CCOCC3)cnn2)cc1
Data returned: 6.00 to 6.30

Data request: Also need Cc1ccnc(N2CCOCC2)c1CNC(=O)c1cnnc(-c2ccc(OC(F)(F)F)cc2)c1 , thanks.
Data returned: > 6.30

Data request: What about O=C(NCc1cccnc1N1CCOCC1)c1cnnc(-c2ccc(OCC3CCC3)c(Cl)c2)c1 ?
Data returned: > 6.30

Data request: Next: O=C(NCc1cccnc1N1CCOC(C(F)(F)F)C1)c1cnnc(-c2ccc(OCC3CC3)c(Cl)c2)c1 (stereo not drawn)
Data returned: 6.00 to 6.30

Data request: Continue with CCCOc1ccc(-c2cc(C(=O)NCc3cccnc3N3CCOCC3)cnn2)cc1F
Data returned: > 6.30

====

Reported IC50 values are given for each entry in this list.
EXPERIMENTAL_SYSTEM: UniProt Q9Y5Y9
ASSAY_PROTOCOL: Nav1.8 inhibition, estimated IC50 (Nav1.8 fluorescence, PatchXpress and/or IonFlux HT automated patch clamp assay)
CONDITION_INFO: HEK293 cells stably expressing hNav1.8; determined using one or more of the described methods; read-out: Activity range (estimated IC50)

compound="O=C(NCc1cccnc1N1CC2(COC2)C1)c1cnnc(-c2ccc(OCC3CC3)c(Cl)c2)c1 [Example 19]" quantity_kind=IC50 obs_value="< 500 nM"
compound="CC1COCCN1c1ncccc1CNC(=O)c1cnnc(-c2ccc(OCC3CC3)cc2)c1 (stereo not drawn) [Example 50]" quantity_kind=IC50 obs_value="> 1000 nM"
compound="CCOc1ccc(-c2cc(C(=O)NCc3cccnc3N3CCOCC3)cnn2)cc1Cl [Example 9]" quantity_kind=IC50 obs_value="< 500 nM"
compound="CCCOc1ccc(-c2cc(C(=O)NCc3cccnc3N3CCOCC3)cnn2)cc1Cl [Example 10]" quantity_kind=IC50 obs_value="< 500 nM"
compound="Cc1ccnc(N2CCOCC2)c1CNC(=O)c1cnnc(-c2ccc(OCC3CC3)c(Cl)c2)c1 [Example 25]" quantity_kind=IC50 obs_value="< 500 nM"
compound="CC(C)Oc1ccc(-c2cc(C(=O)NCc3cccnc3N3CCOCC3)cnn2)cc1Cl [Example 11]" quantity_kind=IC50 obs_value="< 500 nM"

Data request: Record lookup: for UniProt Q9Y5Y9, what IC50 belongs to O=C(NCc1nccnc1N1CCOCC1)c1cnnc(-c2ccc(OCC3CC3)c(Cl)c2)c1 [Example 33] ?
Data returned: < 500 nM
